- Tested on: OVCAR-5 ovarian
- measurement.notes: NCI tumour cell line growth inhibition, 48 h
assay.metric: TGI

# annotated cases, reported TGI shown
| molecule | TGI |
| --- | --- |
| CCOc1ccc2c(c1)[n+]([O-])c(S(=O)(=O)c1ccc(C)cc1)c(N)[n+]2[O-] | > 100 µM |
| O=c1oc2ccc(F)cc2c(=O)n1-c1ccc(F)cc1F | > 100 µM |
| CC1OC(O[C@H]2C[C@@H](O)[C@]3(CO)[C@H]4[C@H](O)C[C@]5(C)[C@@H](C6=CC(=O)OC6)CC[C@]5(O)[C@@H]4CC[C@]3(O)C2)C(O)C(O)C1O (some centres undefined) | > 100 µM |
| COC(=O)C1(C(=O)OC)CC2=C(S(=O)(=O)c3ccccc3)C[C@H](S(=O)(=O)c3ccccc3)[C@H]2C1 | > 100 µM |
| Cc1ccc(S(=O)(=O)C(CC(=O)N2CCCC2)C(=O)c2ccccc2)cc1 (centres undefined) | > 100 µM |
| CN(CCC#N)c1ccc(/C=C2\SC(=S)NC2=O)cc1 | > 100 µM |

Query: What value of TGI has been reported for the following molecule? Cc1ccc(-c2c(C#N)c(-c3ccccc3)n(NS(=O)(=O)c3ccccc3)c(=O)c2C#N)cc1
Result: > 100 µM

Query: Can you look up the measured TGI of OCC1CCCCCCCCCCC12SCCCS2 (centres undefined) for me?
Result: > 100 µM

Query: Endpoint output: TGI of COCCOCOc1ccc(OCc2ccccc2)cc1 . Value?
Result: > 100 µM

Origin of values: PubChem BioAssay (NCI)
